- System: Phytophthora infestans
- test: Antifungal activity against Phytophthora infestans assessed as growth inhibition at 50 ug/mL measured after 2 days post dose
- Type: functional
- condition.summary: 48 h, read-out: GI
measurement.kind: inhibition of growth at 50 µg/mL (%)
Enter your answer as a number in %; do not include the unit.

>>> df
                          smiles_text                  measurement_kind  numeric_readout
0  Cc1ccc(-c2nnc(-c3snnc3C)o2)c(Cl)n1  inhibition of growth at 50 µg/mL               30
1      Cc1ccc(-c2nnc(-c3snnc3C)o2)cc1  inhibition of growth at 50 µg/mL                0
2          Cc1nnsc1-c1nnc(-c2ccco2)o1  inhibition of growth at 50 µg/mL                0
3           CCCCCCCc1nnc(-c2snnc2C)o1  inhibition of growth at 50 µg/mL              100
4     Cc1nnsc1-c1nnc(/C=C/c2ccccc2)o1  inhibition of growth at 50 µg/mL               20
5     COc1cccc(-c2nnc(-c3snnc3C)o2)c1  inhibition of growth at 50 µg/mL               20
6      Cc1cccc(-c2nnc(-c3snnc3C)o2)c1  inhibition of growth at 50 µg/mL             17.1
7  Cc1nnsc1-c1nnc(-c2ccc(=O)[nH]c2)o1  inhibition of growth at 50 µg/mL               31

Shifting focus to the molecule that follows.
Endpoint output: inhibition of growth at 50 µg/mL of CCc1cc(-c2nnc(-c3snnc3C)o2)nn1C . Value?
17.1

---

- System: Sclerotinia sclerotiorum
- test: Antifungal activity against Sclerotinia sclerotiorum assessed as growth inhibition at 50 ug/mL measured after 2 days post dose
- Assay type: functional
- condition.summary: 48 h, read-out: GI
measurement.kind: inhibition of growth at 50 µg/mL (%)
Enter your answer as a number in %; do not include the unit.

>>> df
                                smiles_text  numeric_readout
0      Cc1nnsc1C(=O)Nc1nc(-c2ccc(Cl)cc2)cs1             61.5
1                 CCc1cnc(NC(=O)c2snnc2C)s1              3.3
2        Cc1ccc(-c2nnc(-c3snnc3C)o2)c(Cl)n1                0
3  CCCc1sc(NC(=O)c2snnc2C)nc1-c1ccc(Cl)cc1Cl             22.2

Endpoint output: inhibition of growth at 50 µg/mL of COc1ccc(-c2nnc(-c3snnc3C)o2)cc1 . Value?
23.5

Endpoint output: inhibition of growth at 50 µg/mL of CCCCCCc1cnc(NC(=O)c2snnc2C)s1 . Value?
71.4

Endpoint output: inhibition of growth at 50 µg/mL of Cc1nnsc1-c1nnc(-c2snnc2C)o1 . Value?
32.1

---

- Test system: Sclerotinia sclerotiorum
- test: Antifungal activity against Sclerotinia sclerotiorum assessed as growth inhibition at 50 ug/mL measured after 2 days post dose
- Format: functional
- condition.summary: 48 h, read-out: GI
measurement.kind: inhibition of growth at 50 µg/mL (%)
Enter your answer as a number in %; do not include the unit.

>>> df
                                smiles_text               measured_on  numeric_readout
0  Cc1nnsc1C(=O)Nc1nc(-c2ccc([N+](=O)[O-])cc2)cs1  Sclerotinia sclerotiorum             11.1
1  CCc1sc(NC(=O)c2snnc2C)nc1-c1ccc(Cl)cc1Cl  Sclerotinia sclerotiorum             61.5

Shifting focus to the compound that follows.
Please provide the recorded inhibition of growth at 50 µg/mL for Cc1nnsc1-c1nnc(-c2ccco2)o1 , tested on Sclerotinia sclerotiorum.
0

---

- Tested on: Fusarium graminearum
- test: Antifungal activity against Fusarium graminearum assessed as growth inhibition at 50 ug/mL measured after 2 days post dose
- Assay type: functional
- condition.summary: 48 h, read-out: GI
Outcome label depends on inhibition of growth at 50 µg/mL relative to 30%: at/above gives T, below gives F.

Worked set:
In [3]: df
Out[3]:
                                smiles_text  class
0  CCc1sc(NC(=O)c2snnc2C)nc1-c1ccc(Cl)cc1Cl      F
1      COc1ccc(-c2csc(NC(=O)c3snnc3C)n2)cc1      F
2                  Cc1csc(NC(=O)c2snnc2C)n1      F
3               Cc1ccc(NC(=O)c2snnc2C)cc1Cl      F
4        Cc1ccc(-c2nnc(-c3snnc3C)o2)c(Cl)n1      T
5        Cc1nnsc1-c1nnc(-c2ccc(=O)[nH]c2)o1      F
6          Cc1nnsc1C(=O)Nc1nc(-c2ccccc2)cs1      F
7           Cc1nnsc1-c1nnc(/C=C/c2ccccc2)o1      T

Is reported inhibition of growth at 50 µg/mL greater than or equal to 30% here: COc1cccc(-c2nnc(-c3snnc3C)o2)c1
T

Is reported inhibition of growth at 50 µg/mL greater than or equal to 30% here: CCCCCCCc1nnc(-c2snnc2C)o1
T

Is reported inhibition of growth at 50 µg/mL greater than or equal to 30% here: COc1ccc(-c2nnc(-c3snnc3C)o2)cc1
T

Is reported inhibition of growth at 50 µg/mL greater than or equal to 30% here: Cc1cccc(-c2nnc(-c3snnc3C)o2)c1
F

Is reported inhibition of growth at 50 µg/mL greater than or equal to 30% here: CCCc1c(-c2nnc(-c3snnc3C)o2)cnn1-c1ccc(Cl)cc1
T

Is reported inhibition of growth at 50 µg/mL greater than or equal to 30% here: CCc1cc(-c2nnc(-c3snnc3C)o2)nn1C
F

Is reported inhibition of growth at 50 µg/mL greater than or equal to 30% here: CCCc1sc(NC(=O)c2snnc2C)nc1-c1ccc(Cl)cc1Cl
F

Is reported inhibition of growth at 50 µg/mL greater than or equal to 30% here: Cc1nn(-c2ccccc2)nc1-c1nnc(-c2snnc2C)o1
T

Is reported inhibition of growth at 50 µg/mL greater than or equal to 30% here: Cc1nnsc1C(=O)Nc1nc(-c2ccc([N+](=O)[O-])cc2)cs1
T

Is reported inhibition of growth at 50 µg/mL greater than or equal to 30% here: CCc1cnc(NC(=O)c2snnc2C)s1
T

Is reported inhibition of growth at 50 µg/mL greater than or equal to 30% here: Cc1nnsc1-c1nnc(-c2ccco2)o1
F

Is reported inhibition of growth at 50 µg/mL greater than or equal to 30% here: Cc1ccc(-c2nnc(-c3snnc3C)o2)s1
F

Is reported inhibition of growth at 50 µg/mL greater than or equal to 30% here: Cc1nnsc1-c1nnc(-c2snnc2C)o1
T

Is reported inhibition of growth at 50 µg/mL greater than or equal to 30% here: Cc1nnsc1C(=O)Nc1nc(-c2ccc(Cl)cc2)cs1
F

Is reported inhibition of growth at 50 µg/mL greater than or equal to 30% here: CCCCCCc1cnc(NC(=O)c2snnc2C)s1
F

---

- System: Tobacco mosaic virus
- test: Induction of systemic acquired resistance against Tobacco mosaic virus (TMV) in tobacco plants exposed to 500 ug/mL compound through irrigation based soil treatment followed by 7 days culture under green house conditions assessed as inhibition of viral growth in leaves infected with Tobacco mosaic virus (TMV) measured 72 hr post viral infection by half-leaf juice rubbing method
- Assay type: functional
- Set-up: scale not given: the % may be the effect or the level left
measurement.kind: Activity (%)
Enter your answer as a number in %; do not include the unit.

Study these solved cases before continuing.
>>> df
                           compound  measurement_kind  numeric_readout
0               O=C(O)c1cccc2nnsc12          Activity                5
1                    O=C1NCNC(=O)N1          Activity                8
2  CC(N)CC(=O)O (centres undefined)          Activity               72

Endpoint output: Activity of CSC(=O)c1cccc2nnsc12 [ACIBENZOLAR-S-METHYL] . Value?
95

---

- Tested on: Tobacco mosaic virus
- test: Induction of systemic acquired resistance against Tobacco mosaic virus (TMV) in tobacco plants exposed to 500 ug/mL compound through leaf spray followed by 7 days culture under green house conditions assessed as inhibition of viral growth in leaves infected with Tobacco mosaic virus (TMV) measured 72 hr post viral infection by half-leaf juice rubbing method
- Format: functional
- Parameters: scale not given: the % may be the effect or the level left
# Activity annotations

>>> print(df.to_string())
                                smiles_text           measured_on  result
0  CCc1sc(NC(=O)c2snnc2C)nc1-c1ccc(Cl)cc1Cl  Tobacco mosaic virus      0%
1                 CCCCCCCc1nnc(-c2snnc2C)o1  Tobacco mosaic virus      0%
2      COc1ccc(-c2csc(NC(=O)c3snnc3C)n2)cc1  Tobacco mosaic virus     35%
3                  Cc1csc(NC(=O)c2snnc2C)n1  Tobacco mosaic virus     70%
4           COc1cccc(-c2nnc(-c3snnc3C)o2)c1  Tobacco mosaic virus      0%

Endpoint output: Activity of CCCc1sc(NC(=O)c2snnc2C)nc1-c1ccc(Cl)cc1Cl . Value?
20%

Endpoint output: Activity of Cc1nnsc1-c1nnc(-c2ccco2)o1 . Value?
0%
